Every entry's value here was drawn from patent US20210347873A1.

- target: T1, human APRIL protein (human, UniProt O75888 105-250, limits assumed)
- T1 construct: Bought protein; also called recombinant APRIL protein
- T1 sequence (looked up): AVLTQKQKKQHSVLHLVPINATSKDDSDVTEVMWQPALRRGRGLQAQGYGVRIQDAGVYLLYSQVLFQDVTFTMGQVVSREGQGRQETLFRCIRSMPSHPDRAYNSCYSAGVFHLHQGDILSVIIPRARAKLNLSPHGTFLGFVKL
- procedure summary: ELISA, coated APRIL; antibody 0.00427 nM
measured attribute: OD450 nm
Please give the numeric answer without any surrounding text.

Requested field: OD450 nm. Item: 89A2G5E7 (antibody, V domains shown, Mouse hybridoma antibody purified on Protein G) VH: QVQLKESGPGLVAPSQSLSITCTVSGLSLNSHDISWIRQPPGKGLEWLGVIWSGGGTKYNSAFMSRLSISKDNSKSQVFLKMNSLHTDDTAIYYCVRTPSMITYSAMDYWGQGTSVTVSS VL: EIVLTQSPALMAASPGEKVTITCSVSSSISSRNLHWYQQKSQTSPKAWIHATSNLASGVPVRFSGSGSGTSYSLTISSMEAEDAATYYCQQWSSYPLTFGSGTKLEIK
0.0578

Again, but for 111D10D6G3 (antibody, V domains shown, Mouse hybridoma antibody purified on Protein G) VH: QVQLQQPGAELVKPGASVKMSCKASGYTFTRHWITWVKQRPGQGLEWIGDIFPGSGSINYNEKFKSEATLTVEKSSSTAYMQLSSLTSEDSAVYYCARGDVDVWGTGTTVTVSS VL: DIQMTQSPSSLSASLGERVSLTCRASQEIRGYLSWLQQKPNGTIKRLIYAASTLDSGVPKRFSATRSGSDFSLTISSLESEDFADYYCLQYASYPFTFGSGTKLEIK
0.0538

Now consider 97A3C2H4 (antibody, V domains shown, Mouse hybridoma antibody purified on Protein G) VH: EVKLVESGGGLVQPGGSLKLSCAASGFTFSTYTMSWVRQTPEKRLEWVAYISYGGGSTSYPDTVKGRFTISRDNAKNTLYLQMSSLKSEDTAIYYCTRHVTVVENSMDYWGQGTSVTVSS VL: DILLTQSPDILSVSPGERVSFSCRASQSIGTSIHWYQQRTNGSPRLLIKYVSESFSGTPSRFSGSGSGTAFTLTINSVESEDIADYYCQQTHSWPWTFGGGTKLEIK and answer again.
0.0625

Would you kindly repeat that for 20D1B6E9E5 (antibody, V domains shown) VH: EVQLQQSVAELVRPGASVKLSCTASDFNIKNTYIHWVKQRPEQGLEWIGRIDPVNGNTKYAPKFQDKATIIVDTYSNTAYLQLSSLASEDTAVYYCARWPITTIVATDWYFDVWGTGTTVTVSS VL: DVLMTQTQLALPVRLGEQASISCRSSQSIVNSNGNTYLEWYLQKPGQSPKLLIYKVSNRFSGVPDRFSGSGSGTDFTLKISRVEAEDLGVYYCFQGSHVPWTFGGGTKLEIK ?
0.0535

Please give the result for 8E7D9C7F5 (antibody, V domains shown) VH: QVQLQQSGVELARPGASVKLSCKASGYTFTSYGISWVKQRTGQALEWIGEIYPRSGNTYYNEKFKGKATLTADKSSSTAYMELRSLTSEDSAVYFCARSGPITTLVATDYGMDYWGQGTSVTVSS VL: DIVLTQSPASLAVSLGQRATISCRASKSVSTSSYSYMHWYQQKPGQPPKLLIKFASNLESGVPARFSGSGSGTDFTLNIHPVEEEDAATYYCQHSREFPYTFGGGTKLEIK too.
0.0571
